Target: rat Nluc‐A1AR (Rattus norvegicus)
Sequence (P25099 2-326 limits assumed): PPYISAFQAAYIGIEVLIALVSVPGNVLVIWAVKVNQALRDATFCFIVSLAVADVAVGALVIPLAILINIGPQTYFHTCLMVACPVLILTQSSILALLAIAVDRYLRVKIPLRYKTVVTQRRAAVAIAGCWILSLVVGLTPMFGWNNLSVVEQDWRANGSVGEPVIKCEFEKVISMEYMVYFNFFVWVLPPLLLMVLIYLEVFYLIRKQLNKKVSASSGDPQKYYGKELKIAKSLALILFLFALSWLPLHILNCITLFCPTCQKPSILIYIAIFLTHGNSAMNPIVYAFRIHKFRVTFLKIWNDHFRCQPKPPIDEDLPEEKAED
Test: NanoBRET competition binding: inhibition of specific binding of CA200645
measured.metric: IC50 (µM)

Some molecules with known IC50 results, for comparison:
{"columns": ["smiles.notation", "IC50 / µM"],
 "data": [
  ["Nc1scc(-c2cccc(C(F)(F)F)c2)c1C(=O)c1ccccc1", 129],
  ["N#Cc1c(N)nc(SCc2csc(-c3ccc(Cl)cc3)n2)c(C#N)c1-c1ccc(OCCO)cc1", 0.186]
]}

A. O=C(Cc1ccccc1)Nc1nc2ccc(Cl)cc2c2nc(-c3ccco3)nn12
B. Nc1sc(-c2ccc(C(=O)NCCCCCCNc3ncnc4c3ncn4[C@@H]3O[C@H](CO)[C@@H](O)[C@H]3O)cc2)c(-c2cccc(C(F)(F)F)c2)c1C(=O)c1ccccc1
Asked: Lab log: flag the item ( A or B ) with the smaller IC50 figure. In your reply, give the label of the chosen option.
Given back: A

----------
target: rat Nluc‐A1AR (Rattus norvegicus); assay: cell-based; conditions: agonist pIC50, Rat, PD 81,723 0 (control), 25 nM CA200645
measured.metric: IC50 (nM)
Use nM as the unit, but write only the number.

Asked: Quick one: IC50 of N#Cc1c(N)nc(SCc2csc(-c3ccc(Cl)cc3)n2)c(C#N)c1-c1ccc(OCCO)cc1 [Capadenoson] ?
Given back: 275

----------
Biological target: rat Nluc‐A1AR (Rattus norvegicus, UniProt P25099)
Sequence (P25099 2-326 limits assumed): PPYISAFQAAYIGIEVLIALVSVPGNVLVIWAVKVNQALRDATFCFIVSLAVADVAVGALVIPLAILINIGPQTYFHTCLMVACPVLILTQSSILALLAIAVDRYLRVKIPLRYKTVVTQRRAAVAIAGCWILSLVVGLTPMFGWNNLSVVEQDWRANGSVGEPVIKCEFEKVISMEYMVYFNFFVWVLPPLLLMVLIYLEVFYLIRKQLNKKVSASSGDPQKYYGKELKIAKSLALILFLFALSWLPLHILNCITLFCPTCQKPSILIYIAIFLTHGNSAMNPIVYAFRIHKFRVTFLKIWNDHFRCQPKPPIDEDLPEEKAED
Assay: Fluorescent agonist saturation binding in presence/absence of allosteric modulator (NanoBRET)
Parameters: expressed in transfected cells
Conditions: Rat Nluc A1R, VCP171 0 (control)
measured.metric: Kd (nM)

{"columns": ["molecule", "measured.metric", "unit.string", "observed"],
 "data": [
  ["CCNC(=O)[C@H]1O[C@@H](n2cnc3c(NCCCCNC(=O)CCCCCNC(=O)COc4ccc(/C=C/C5=[N+]6C(=Cc7ccc(-c8cccs8)n7[B-]6(F)F)C=C5)cc4)ncnc32)[C@H](O)[C@@H]1O [ABEA‐X‐BY630]", "Kd", "nM", 891],
  ["O=C(CCCCCNC(=O)COc1ccc(/C=C/C2=[N+]3C(=Cc4ccc(-c5cccs5)n4[B-]3(F)F)C=C2)cc1)NCCCCNc1ncnc2c1ncn2[C@@H]1O[C@H](CO)[C@@H](O)[C@H]1O [ABA‐X‐BY630]", "Kd", "nM", 891]
]}
